The reported numbers originate from patent US20220112288A1.

# measured.target: T1, human CD4 on cells (SKW3 cells; human PBMCs) (human, UniProt P01730 26-458)
# T1 construct: whole, on cells; The SKW3 CD4 knockout cells served as the negative cell line; also called hCD4
# experiment.description: FACS primary screen, non-clonal supernatant; SKW3 vs SKW3 CD4 KO cells, anti-mouse Fc 647 detection
measured.property: SKW3 WT vs KO, anti-mFc-647 (ratio)

Consider 75110_08H11A (antibody, V domains shown, Tested as non-clonal hybridoma supernatant from AlivaMab Mouse Kappa mice, detected with anti-mouse Fc and anti-human Kappa) VH: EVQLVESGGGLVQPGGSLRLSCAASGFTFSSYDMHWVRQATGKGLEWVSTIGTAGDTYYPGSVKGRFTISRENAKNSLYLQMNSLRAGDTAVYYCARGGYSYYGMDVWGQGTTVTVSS VL: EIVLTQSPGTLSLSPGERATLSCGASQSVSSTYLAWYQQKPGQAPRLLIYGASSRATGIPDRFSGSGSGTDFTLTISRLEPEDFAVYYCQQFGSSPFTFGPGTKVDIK . Its measured SKW3 WT vs KO, anti-mFc-647 (ratio) is 2.8 ratio

The recorded SKW3 WT vs KO, anti-mFc-647 (ratio) for entry 75110_08H06A (antibody, V domains shown, Tested as non-clonal hybridoma supernatant from AlivaMab Mouse Kappa mice, detected with anti-mouse Fc and anti-human Kappa) VH: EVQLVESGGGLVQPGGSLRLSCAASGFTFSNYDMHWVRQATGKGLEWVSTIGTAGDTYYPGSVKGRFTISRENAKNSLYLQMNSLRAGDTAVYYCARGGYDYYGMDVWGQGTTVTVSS VL: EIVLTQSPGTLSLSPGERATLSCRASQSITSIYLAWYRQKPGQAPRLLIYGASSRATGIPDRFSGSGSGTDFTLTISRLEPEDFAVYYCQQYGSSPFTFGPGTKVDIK equals 3 ratio
